Property: kon; scope: individual binders
Subject of test: T1, recombinant extracellular portion of human IGF1R (IGF1R^933-His fragment) (human, UniProt P08069 31-933)
T1 construct: It holds a furin site (RKRR) between the alpha and beta subunits, so the protein may be cleaved into two disulphide-linked chains; also called h-IGF1R; recombinant human IGF1R; not shown: His tag from vector pCDN4/myc-His
Measurement protocol: SPR (BIACORE 3000), human IGF1R immobilized on CM5, VHH injected, 1:1 model, 25 C
Method: Approximately 3000 Resonance Units (RU) of recombinant human IGF1R (R&D Systems) were immobilized on a Sensor chip CM5. Immobilization was carried out at a concentration of 10 μg/ml in 10 mM acetate at pH4.0 using the amine coupling kit supplied by the manufacturer. The remaining binding sites were blocked with 1M ethanolamine pH 8.5. An ethanolamine blocked surface was used as a reference surface. […] Data were analyzed with BIAevaluation 4.1 software (GE Healthcare).

{"Binder": "IGF1R-5_H5 (VHH, Humanized variant of IGF1R-5, expressed from pSJF2H in E. coli) VHH: QVQLVESGGGLVQPGGSLRLSCAASGRTIDNYAMAWSRQAPGKDREFVATIDWGDGGTRYANSVKGRFTISRDNSKGTMYLQMNSLRAEDTAVYSCAMARQSRVNLDVARYDYWGQGTLVTVSS", "kon": "500000 M⁻¹ s⁻¹"}
{"Binder": "IGF1R-5_H6 (VHH, Humanized variant of IGF1R-5, expressed from pSJF2H in E. coli) VHH: EVQLVESGGGLVQPGGSLRLSCAASGRTIDNYAMAWSRQAPGKDREFVSTIDWGDGGTRYANSVKGRFTISRDNSKNTLYLQMNSLRAEDTAVYYCAMARQSRVNLDVARYDYWGQGTLVTVSS", "kon": "430000 M⁻¹ s⁻¹"}
{"Binder": "IGF1R-5_H2 (VHH, Humanized variant of IGF1R-5, expressed from pSJF2H in E. coli; also called IGF1R H2) VHH: QVQLVESGGGLVQPGGSLRLSCAASGRTIDNYAMAWVRQAPGKGLEWVATIDWGDGGTRYANSVKGRFTISRDNSKNTMYLQMNSLRAEDTAVYYCAMARQSRVNLDVARYDYWGQGTLVTVSS", "kon": "380000 M⁻¹ s⁻¹"}
{"Binder": "IGF1R-5_H3 (VHH, Humanized variant of IGF1R-5, expressed from pSJF2H in E. coli) VHH: QVQLVESGGGLVQPGGSLRLSCAASGRTIDNYAMAWSRQAPGKGLEFVATIDWGDGGTRYANSVKGRFTISRDNSKNTMYLQMNSLRAEDTAVYYCAMARQSRVNLDVARYDYWGQGTLVTVSS", "kon": "520000 M⁻¹ s⁻¹"}
{"Binder": "IGF1R-5 VHH (VHH, Llama VHH expressed in E. coli TG1 from vector pSJF2H and purified by IMAC; Monomeric by SEC; also called anti-IGF1R VHH IGF1R-5; wild-type IGF1R-5) VHH: QVKLEESGGGLVQAGGSLRLSCAASGRTIDNYAMAWSRQAPGKDREFVATIDWGDGGARYANSVKGRFTISRDNAKGTMYLQMNNLEPEDTAVYSCAMARQSRVNLDVARYDYWGQGTQVTVSS", "kon": "530000 M⁻¹ s⁻¹"}
{"Binder": "IGF1R-5_H1 (VHH, Humanized variant of IGF1R-5, expressed from pSJF2H in E. coli) VHH: EVQLVESGGGLVQPGGSLRLSCAASGRTIDNYAMAWVRQAPGKGLEWVSTIDWGDGGTRYANSVKGRFTISRDNSKNTLYLQMNSLRAEDTAVYYCAMARQSRVNLDVARYDYWGQGTLVTVSS", "kon": "390000 M⁻¹ s⁻¹"}
